tested_target: PKC α (Homo sapiens, UniProt P17252)
measurement_protocol: Protein Kinase C Histone-Based Assay, α isoform
Format: biochemical
stated_conditions: histone III substrate, 30 μM ATP, 10 min at 30° C.; read-out: PKC Activity (IC50 μM, Histone Based Assay) Alpha
recorded_endpoint: IC50 (µM)
Field: numeric (µM). Do not append units.

Below, each entry is followed by its recorded IC50 result.
CN(CCO)CCCn1nc(C2=C(c3cn(-c4cccnc4)c4ccccc34)C(=O)NC2=O)c2ccccc21 [Compound 114]: 0.047
CN1CCN(CCCn2nc(C3=C(c4cn(C)c5ccc(Cl)cc45)C(=O)NC3=O)c3ccccc32)CC1 [Compound 77]: 0.354
CN(C)CCCn1nc(C2=C(c3cn(-c4cccnc4)c4ccccc34)C(=O)NC2=O)c2ccccc21 [Compound 12]: 0.124

Query (compound): CN(C)CCCn1nc(C2=C(c3cn(Cc4ccc5ccccc5n4)c4ccccc34)C(=O)NC2=O)c2ccccc21 [Compound 67] ; field requested: IC50
1.48

Tell me the measured IC50 of C=Cn1cc(C2=C(c3nn(CCCN(C)C)c4ccccc34)C(=O)NC2=O)c2ccccc21 [Compound 3] , please.
0.248

Recorded IC50 of CN(C)CCCn1nc(C2=C(c3cn(-c4ccccn4)c4ccccc34)C(=O)NC2=O)c2ccccc21 [Compound 31] , please.
0.106

Query (compound): O=CCCn1nc(C2=C(c3cn(-c4cnc5ccccc5c4)c4ccccc34)C(=O)NC2=O)c2ccccc21 [Compound 23] ; field requested: IC50
0.546
